- tgt: Zinc finger protein mex-5 (Caenorhabditis elegans) (UniProt Q9XUB2)
- Sequence (Q9XUB2 whole entry, looked up): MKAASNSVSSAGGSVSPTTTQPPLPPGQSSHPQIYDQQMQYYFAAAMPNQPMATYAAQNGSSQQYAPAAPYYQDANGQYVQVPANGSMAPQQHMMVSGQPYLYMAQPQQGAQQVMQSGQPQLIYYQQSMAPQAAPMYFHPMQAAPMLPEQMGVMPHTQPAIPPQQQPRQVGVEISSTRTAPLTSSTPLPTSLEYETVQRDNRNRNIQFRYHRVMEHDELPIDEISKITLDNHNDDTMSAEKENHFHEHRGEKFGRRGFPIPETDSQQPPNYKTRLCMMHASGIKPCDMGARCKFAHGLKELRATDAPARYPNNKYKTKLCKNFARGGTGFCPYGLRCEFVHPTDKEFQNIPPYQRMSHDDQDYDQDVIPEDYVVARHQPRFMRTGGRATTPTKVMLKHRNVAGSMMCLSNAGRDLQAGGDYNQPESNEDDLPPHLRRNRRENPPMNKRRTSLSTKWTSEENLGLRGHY
- assayRemarks: MEX-5 RNA-binding inhibition confirmation – biochemical, C. elegans, fluorescence polarization, dose retest (AID 449745);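 also: potency is for blocking Mex-5 binding to labeled TCR2 RNA like unlabeled competitor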
- conditions: Mex-5 / TCR-2 RNA binding
Results filed as inconclusive are left out. Activity calls are given as the source filed them. No rule for the calls is given here.
Outcomes: YES (active), NO (inactive)

[[record]]
compound = "COc1cc([N+](=O)[O-])ccc1N/C=C/C(=O)c1cccs1"
tgt = "Zinc finger protein mex-5 (Caenorhabditis elegans) (UniProt Q9XUB2)"
category = "NO"

[[record]]
compound = "O=C(NNc1ncnc2c1cnn2-c1ccc(F)cc1)c1ccco1"
tgt = "Zinc finger protein mex-5 (Caenorhabditis elegans) (UniProt Q9XUB2)"
category = "YES"

[[record]]
compound = "CCOC(=O)C1CCN(c2nc3ccccc3nc2C(C#N)C(=O)OC(C)C)CC1 (configuration not stated)"
tgt = "Zinc finger protein mex-5 (Caenorhabditis elegans) (UniProt Q9XUB2)"
category = "NO"

[[record]]
compound = "CC1=C(C#N)c2nc(N)c(C#N)c(C)c2/C1=C\\c1ccc(-c2ccccc2C(=O)O)o1"
tgt = "Zinc finger protein mex-5 (Caenorhabditis elegans) (UniProt Q9XUB2)"
category = "YES"

[[record]]
compound = "COc1ncnc2c1N=C1CC(C)(C)CC(N)=C1S2"
tgt = "Zinc finger protein mex-5 (Caenorhabditis elegans) (UniProt Q9XUB2)"
category = "YES"

[[record]]
compound = "O=C1CSC(=S)N1/N=C/c1cc(Br)c(O)c(Br)c1"
tgt = "Zinc finger protein mex-5 (Caenorhabditis elegans) (UniProt Q9XUB2)"
category = "NO"

[[record]]
compound = "O=C(O)c1ccc(Cl)c2c1C1C=CCC1C(c1ccccn1)N2 (configuration not stated)"
tgt = "Zinc finger protein mex-5 (Caenorhabditis elegans) (UniProt Q9XUB2)"
category = "YES"

